Target: Dual specificity protein kinase CLK4 (Homo sapiens)
Test: Inhibition of CLK4 (unknown origin) by bioluminescence assay
Details: read-out: IC50
Assignment: determine reported pIC50 for the given molecules.
Answers are plain numbers, as −log10 of the molar value.

INSERT INTO assay_data (molecule, measure_name, reported_measurement) VALUES
  ('Clc1ccc(CNc2ccnc(-c3ccc4c(c3)OCO4)n2)cc1Cl', 'pIC50', 4.59),
  ('Clc1ccc(CNc2ccnc(-c3ccc4c(c3)OCO4)n2)cc1', 'pIC50', 4.39),
  ('N#Cc1cccc(-c2nccc(NCc3ccccc3)n2)c1', 'pIC50', 4.85),
  ('COc1ccc(CNc2ccnc(-c3cccc(OC)c3)n2)cc1', 'pIC50', 4.63),
  ('c1cncc(CNc2ccnc(-c3ccc4[nH]ncc4c3)n2)c1', 'pIC50', 6.82);

Count: 2. Required value per item: pIC50.
1. c1cc(-c2ccc3c(c2)OCO3)nc(Nc2ccc3c(c2)OCO3)n1
2. c1ccc(CNc2ccnc(-c3cccnc3)n2)cc1

Output line:
6.92
4.50

Count: 7. Required value per item: pIC50.
1. c1cncc(CNc2ccnc(-c3ccc4cn[nH]c4c3)n2)c1
2. Brc1cc(Br)cc(CNc2nccc(-c3ccc4c(c3)OCO4)n2)c1
3. Clc1cncc(CNc2ccnc(-c3ccc4c(c3)OCO4)n2)c1
4. COc1ccc(-c2ccnc(NCc3ccc(Cl)cc3)n2)cc1
5. Fc1cc(CNc2ccnc(-c3ccc4c(c3)OCO4)n2)cc(F)c1F
6. COc1ccc(CNc2ccnc(-c3ccc(OC)cc3)n2)cc1
7. Clc1ccc(CNc2nccc(-c3ccc4c(c3)OCCO4)n2)cc1Cl

Output line:
6.54
7.40
4.74
6.54
5.09
4.43
6.92

====

Assay: Permeability of the compound in aqueous buffer at donor compartment pH 7.4 and acceptor compartment pH 7.4 by PAMPA
Type: ADME
Measure name: permeability

Input line: Consider the compound shown here: Clc1cc(Cl)cc(CNc2ncncc2-c2ccc3c(c2)OCO3)c1 What is its recorded permeability?
Output line: 1150 ×10⁻⁶ cm/s

====

Assignment: determine reported IC50 for the given molecules.
Target: Dual specificity tyrosine-phosphorylation-regulated kinase 1A (Homo sapiens)
Test: Inhibition of DYRK1A (unknown origin) by bioluminescence assay
Conditions: read-out: IC50
Numbers only, in nM.

Count: 6. Required value per item: IC50.
1. Clc1ccc(CNc2nccc(-c3ccc4[nH]ncc4c3)n2)cc1Cl
2. COc1ccc(-c2ccnc(NCc3ccc(Cl)cc3)n2)cc1
3. Clc1ccc(CNc2nccc(-c3ccc4cn[nH]c4c3)n2)cc1Cl
4. c1cncc(CNc2ncncc2-c2ccc3c(c2)OCO3)c1
5. COc1cccc(-c2ccnc(NCc3ccc(Cl)cc3)n2)c1
6. Brc1ccc(CNc2nccc(-c3ccc4c(c3)OCO4)n2)cc1Br

Output line:
1. 330
2. 2070
3. 1640
4. 26000
5. 7330
6. 820

Count: 8. Required value per item: IC50.
1. Clc1cc(Cl)cc(CNc2ncncc2-c2ccc3c(c2)OCO3)c1
2. c1cncc(CNc2ccnc(-c3ccc4cn[nH]c4c3)n2)c1
3. c1cncc(CNc2cc(-c3ccc4c(c3)OCO4)ncn2)c1
4. Clc1ccc(CNc2ccnc(-c3ccc4c(c3)OCO4)n2)cn1
5. c1cncc(CNc2nccc(-c3ccc4[nH]ncc4c3)n2)c1
6. COc1ccc(-c2ccnc(NCc3ccc(Cl)c(Cl)c3)n2)cc1
7. Clc1ccc(CNc2ncncc2-c2ccc3c(c2)OCO3)cc1Cl
8. COc1ccc(-c2ccnc(NCc3ccc(Cl)c(Cl)c3)n2)cc1OC

Output line:
[2600, 2070, 16400, 29200, 150, 1160, 4120, 26000]

Input line: Consider the molecule shown here: c1cncc(CNc2ccnc(-c3ccc4[nH]ncc4c3)n2)c1 What is its recorded IC50?
Output line: 650

====

Biological target: Dual specificity tyrosine-phosphorylation-regulated kinase 1A (Homo sapiens, UniProt Q13627)
Assay: Inhibition of DYRK1A (unknown origin) by bioluminescence assay
Measure name: IC50

Example compounds with recorded IC50:
INSERT INTO assay_data (molecule, measure_name, reported_measurement) VALUES
  ('Clc1cc(Cl)cc(CNc2ccnc(-c3ccc4c(c3)OCO4)n2)c1', 'IC50', 'Not Active'),
  ('COc1ccc(CNc2ccnc(-c3c(C)noc3C)n2)cc1', 'IC50', 'Not Active'),
  ('Brc1cc(Br)cc(CNc2ccnc(-c3ccc4c(c3)OCO4)n2)c1', 'IC50', 'Not Active'),
  ('COc1ccc(CNc2ccnc(-c3ccc(OC)cc3)n2)cc1', 'IC50', 'Not Active'),
  ('CN(C)c1ccc(-c2nccc(NCc3ccccc3)n2)cc1', 'IC50', 'Not Active');

Count: 7. Required value per item: IC50.
1. COc1ccc(CNc2ccnc(-c3ccc(N(C)C)cc3)n2)cc1
2. CN(C)c1ccc(-c2ncccn2)cc1
3. Clc1ccc(CNc2ccnc(-c3ccc4c(c3)OCO4)n2)cc1
4. Cc1noc(C)c1-c1nccc(NCc2ccc(Cl)cc2)n1
5. N#Cc1cccc(-c2ncccn2)c1
6. COc1cccc(-c2nccc(NCc3ccc(Cl)c(Cl)c3)n2)c1
7. COc1ccc(-c2nccc(NCc3ccc(Cl)cc3)n2)cc1

Output line:
1. Not Active
2. Not Active
3. Not Active
4. Not Active
5. Not Active
6. Not Active
7. Not Active

Count: 4. Required value per item: IC50.
1. Cc1noc(C)c1-c1nccc(NCc2ccc(Cl)c(Cl)c2)n1
2. COc1ccc(-c2ncccn2)cc1
3. Cc1ccc(CNc2ccnc(-c3c(C)noc3C)n2)cc1
4. c1cnc(-c2ccc3c(c2)OCO3)nc1

Output line:
1: Not Active; 2: Not Active; 3: Not Active; 4: Not Active

Count: 5. Required value per item: IC50.
1. CN(C)c1ccc(-c2nccc(NCc3ccc(Cl)cc3)n2)cc1
2. Brc1ccc(CNc2ccnc(-c3ccc4c(c3)OCO4)n2)cc1Br
3. Cc1noc(C)c1-c1ncccn1
4. Cc1ccc(CNc2ccnc(-c3cccnc3)n2)cc1
5. COc1ccc(-c2nccc(NCc3ccccc3)n2)cc1

Output line:
["Not Active", "Not Active", "Not Active", "Not Active", "Not Active"]

====

Target: Dual specificity tyrosine-phosphorylation-regulated kinase 1B (Homo sapiens, UniProt Q9Y463)
Sequence (Q9Y463 whole entry): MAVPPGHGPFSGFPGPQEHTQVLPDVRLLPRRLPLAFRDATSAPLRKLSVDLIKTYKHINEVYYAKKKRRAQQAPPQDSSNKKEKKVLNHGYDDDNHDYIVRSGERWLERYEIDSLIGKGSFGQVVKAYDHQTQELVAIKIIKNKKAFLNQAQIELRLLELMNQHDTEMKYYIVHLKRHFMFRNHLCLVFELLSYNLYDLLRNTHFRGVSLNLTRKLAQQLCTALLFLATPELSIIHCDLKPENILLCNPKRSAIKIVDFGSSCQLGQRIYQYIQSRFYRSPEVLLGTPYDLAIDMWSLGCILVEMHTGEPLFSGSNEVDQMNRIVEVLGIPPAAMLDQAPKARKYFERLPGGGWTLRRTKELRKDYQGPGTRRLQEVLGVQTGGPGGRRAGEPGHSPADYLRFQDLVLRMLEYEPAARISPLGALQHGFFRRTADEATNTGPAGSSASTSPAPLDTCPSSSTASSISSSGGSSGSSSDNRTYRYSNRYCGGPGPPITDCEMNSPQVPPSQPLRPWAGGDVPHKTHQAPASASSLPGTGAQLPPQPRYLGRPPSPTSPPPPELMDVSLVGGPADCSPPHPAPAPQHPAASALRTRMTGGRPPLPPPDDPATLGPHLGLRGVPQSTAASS
pIC50: −log10 of the molar value.
Measure name: pIC50

Example molecules with recorded pIC50:
INSERT INTO measurements (molecule, reported_measurement) VALUES
  ('COc1cccc(-c2ccnc(NCc3ccc(Cl)c(Cl)c3)n2)c1', '< 5.00'),
  ('c1cncc(CNc2ncncc2-c2ccc3c(c2)OCO3)c1', '< 5.00');

Here is another molecule to look at.
Input line: Consider the molecule shown here: Clc1ccc(CNc2ncncc2-c2ccc3c(c2)OCO3)cc1Cl What is its recorded pIC50?
Output line: < 5.00

====

Biological target: Dual specificity protein kinase CLK4 (Homo sapiens, UniProt Q9HAZ1)
Sequence (Q9HAZ1 whole entry): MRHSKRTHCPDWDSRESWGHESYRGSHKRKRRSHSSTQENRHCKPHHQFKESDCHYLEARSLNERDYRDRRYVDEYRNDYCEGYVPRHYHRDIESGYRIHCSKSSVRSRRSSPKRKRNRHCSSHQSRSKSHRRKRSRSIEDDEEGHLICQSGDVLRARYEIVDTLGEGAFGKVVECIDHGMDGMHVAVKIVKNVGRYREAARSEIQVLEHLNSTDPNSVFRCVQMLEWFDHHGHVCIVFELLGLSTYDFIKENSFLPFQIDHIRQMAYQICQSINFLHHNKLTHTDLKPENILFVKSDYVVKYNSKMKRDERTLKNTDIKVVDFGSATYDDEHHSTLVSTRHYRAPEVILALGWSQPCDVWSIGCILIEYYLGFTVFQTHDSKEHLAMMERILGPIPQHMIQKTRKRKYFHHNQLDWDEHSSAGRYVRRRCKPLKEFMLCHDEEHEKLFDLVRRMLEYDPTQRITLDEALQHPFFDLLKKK
Assay: Inhibition of CLK4 (unknown origin) by bioluminescence assay
Conditions: read-out: IC50
Measure name: IC50 (µM)
One number for each entry, in µM.

Example compounds with recorded IC50:
INSERT INTO assay_data (molecule, output_unit, reported_measurement) VALUES
  ('Fc1ccc(CNc2ccnc(-c3ccc4c(c3)OCO4)n2)cc1F', 'µM', 10.4),
  ('c1cc(CNc2ccnc(-c3ccc4c(c3)OCO4)n2)ccn1', 'µM', 23.2),
  ('Cc1ccc(CNc2ccnc(-c3ccc4c(c3)OCO4)n2)cc1', 'µM', 23.2),
  ('c1cncc(CNc2ccnc(-c3ccc4c(c3)OCO4)n2)c1', 'µM', 0.063),
  ('c1ccc2ncc(CNc3ccnc(-c4ccc5c(c4)OCO5)n3)cc2c1', 'µM', 41.2);

Count: 5. Required value per item: IC50.
1. c1ccc(CNc2ccnc(-c3ccc4c(c3)OCO4)n2)nc1
2. Brc1cc(Br)cc(CNc2ccnc(-c3ccc4c(c3)OCO4)n2)c1
3. Clc1ccc(CNc2cc(-c3ccc4c(c3)OCO4)ncn2)cc1Cl
4. Clc1ccc(CNc2nccc(-c3ccc4cn[nH]c4c3)n2)cc1Cl
5. Clc1ccc(CNc2ccnc(-c3cccnc3)n2)cc1

Output line:
9.2
9.2
4.63
5.82
16.4

All values here come from ChEMBL document CHEMBL2390846.
